Values from ChEMBL document CHEMBL5058577

- Test system: Fibroblast
- protocol_summary: Multiplex assay against human fibroblast
- Format: toxicity, cell-based
- run_parameters: 48 h, 10 µM, compound concentration 10 uM, replicate 1
Non-standard residues stand in square brackets, D forms with d. Residues, ends and D or L forms follow the SMILES beside them.
Can you tell me Population Membrane Permeable-Phenotype (%) for the items I'm about to list?
// return numeric value only (unit: %, not printed)

Record Cc1ccc(OCC(O)C(C)NC(C)C)c2c1CCC2.Cl (centres undefined) , field Population Membrane Permeable-Phenotype (%): 0

Record COc1cc2nc(N3CCN(C(=O)COc4c(OC)cccc4C(C)C)CC3)nc(N)c2cc1OC.Cl.Cl , field Population Membrane Permeable-Phenotype (%): 2

Record COC(c1ccccc1)(c1ccccc1)[C@H](Oc1nc(C)cc(C)n1)C(=O)O , field Population Membrane Permeable-Phenotype (%): 1

Record C=CCN1C[C@H](C(=O)N(CCCN(C)C)C(=O)NCC)C[C@@H]2c3cccc4[nH]cc(c34)C[C@H]21 , field Population Membrane Permeable-Phenotype (%): 1

Record Cc1cc(-c2ccc3c(c2)CC[C@H]3N2CC3(CCN(C(=O)Cc4cn5cc(C)sc5n4)CC3)C2)ncn1 , field Population Membrane Permeable-Phenotype (%): 0

Record CCCCCCNC(=O)Nc1ccc(S(=O)(=O)Nc2ccc(CCNC[C@H](O)COc3ccc(O)cc3)cc2)cc1 , field Population Membrane Permeable-Phenotype (%): 1

Record CCC(=O)OCC(=O)[C@@]1(OC(=O)CC)[C@@H](C)C[C@H]2[C@@H]3CCC4=CC(=O)C=C[C@]4(C)[C@@]3(Cl)[C@@H](O)C[C@@]21C [BECLOMETHASONE DIPROPIONATE] , field Population Membrane Permeable-Phenotype (%): 0

Record CC(C)C[C@@H]1NC(=O)[C@@H](C(C)C)NC(=O)[C@@H]2CCCN2C(=O)[C@@H](CC(=O)O)NC(=O)[C@@H](Cc2c[nH]c3ccccc23)NC1=O [BQ-123] (cyclo(L[dW][dD]P[dV])) , field Population Membrane Permeable-Phenotype (%): 1

Record COc1cc(Nc2ncc3c(n2)-c2ccc(Cl)cc2C(c2c(F)cccc2OC)=NC3)ccc1C(=O)O , field Population Membrane Permeable-Phenotype (%): 5

Record COc1ccc2c(c1OCc1ccccc1)C[C@@H](C(=O)O)N(C(=O)C(c1ccccc1)c1ccccc1)C2 , field Population Membrane Permeable-Phenotype (%): 1

Record Cc1cc(=O)n(C)c2cc(N3C(=O)CC[C@H](NS(=O)(=O)CC(C)C)[C@H]3c3ccc(Cl)cc3)ccc12 , field Population Membrane Permeable-Phenotype (%): 0

Record CN(C)C/C=C/C(=O)Nc1ccc(C(=O)N2CCCC(Nc3ncc(Cl)c(-c4c[nH]c5ccccc45)n3)C2)cc1 (centres undefined) , field Population Membrane Permeable-Phenotype (%): 0

Record O=c1nc2[nH]c3ccccc3nc-2c(=O)[nH]1 , field Population Membrane Permeable-Phenotype (%): 2

Record COCCCN1CCC(NC(=O)c2cc(Cl)c(N)c3c2OCC3)CC1 [PRUCALOPRIDE] , field Population Membrane Permeable-Phenotype (%): 1

====

Can you tell me Population Mitochondria Different-Phenotype (%) for the items I'm about to list?
- System: U2OS
- protocol_summary: Multiplex assay against U2OS
- Type: toxicity, cell-based
- run_parameters: human, 12 h, 10 µM, compound concentration 10 uM, replicate 2
// return numeric value only (unit: %, not printed)

Record O=C(O)CCC/C=C\CC1C(O)CC(O)C1/C=C/C(O)COc1cccc(Cl)c1 (configuration not stated) , field Population Mitochondria Different-Phenotype (%): 6

Record COc1cc(OC2CCN(C(C)=O)CC2)ccc1C(=O)N1CCC(N2C(=O)OCc3ccccc32)CC1 , field Population Mitochondria Different-Phenotype (%): 10

Record CCn1c(-c2nc3cc(C(=O)N4CCCC(N)C4)ccc3n2C)cc2ccccc21.Cl (configuration not stated) , field Population Mitochondria Different-Phenotype (%): 55

Record CN1CCN(c2ccc(Nc3c4ccccc4nc4ccccc34)cc2)CC1.Cl.Cl.O , field Population Mitochondria Different-Phenotype (%): 100

Record C=CCN1C[C@H](C(=O)N(CCCN(C)C)C(=O)NCC)C[C@@H]2c3cccc4[nH]cc(c34)C[C@H]21 , field Population Mitochondria Different-Phenotype (%): 21

Record S=C(NCCCc1c[nH]cn1)NCCCN(Cc1ccc(Cl)c(Cl)c1)c1ccc(Br)cn1 , field Population Mitochondria Different-Phenotype (%): 60

Record Cc1ccc(OCC(O)C(C)NC(C)C)c2c1CCC2.Cl (configuration not stated) , field Population Mitochondria Different-Phenotype (%): 22

Record CN1C[C@H](C(=O)N[C@]2(C)O[C@@]3(O)[C@@H]4CCCN4C(=O)[C@H](Cc4ccccc4)N3C2=O)C[C@@H]2c3cccc4[nH]cc(c34)C[C@H]21.CS(=O)(=O)O [DIHYDROERGOTAMINE MESYLATE] , field Population Mitochondria Different-Phenotype (%): 0

Record CC(C)(O)C(=O)N1CCN(c2ccc(C(F)(F)F)c(C3=C(c4c[nH]c5ccccc45)C(=O)NC3=O)c2)CC1 , field Population Mitochondria Different-Phenotype (%): 14

Record CN(C)C(=O)Cn1cc(-c2ccc(-c3nnc4ccccn34)cc2)cn1 , field Population Mitochondria Different-Phenotype (%): 0

Record COc1cc2nc(N3CCN(C(=O)c4ccco4)CC3)nc(N)c2cc1OC.Cl [PRAZOSIN HYDROCHLORIDE] , field Population Mitochondria Different-Phenotype (%): 5

Record CC(C)C[C@H](CO)Nc1nc(S[C@@H](C)c2ccccc2)nc2nc(N)sc12 , field Population Mitochondria Different-Phenotype (%): 16

Record OCCCNc1cc(-c2ccnc(Nc3cccc(Cl)c3)n2)ccn1 , field Population Mitochondria Different-Phenotype (%): 51

Record CCCCCCNC(=O)Nc1ccc(S(=O)(=O)Nc2ccc(CCNC[C@H](O)COc3ccc(O)cc3)cc2)cc1 , field Population Mitochondria Different-Phenotype (%): 15

Record O=C(Nc1cc(-c2ccccc2)nn1-c1ccccc1F)c1ccc([N+](=O)[O-])cc1 , field Population Mitochondria Different-Phenotype (%): 8

Record Cc1nn(C)c2nc(NNC(=O)Nc3cc(Cl)nc(Cl)c3)cc(C(C)C)c12 , field Population Mitochondria Different-Phenotype (%): 63

Record CN(C)C/C=C/C(=O)Nc1ccc(C(=O)N2CCCC(Nc3ncc(Cl)c(-c4c[nH]c5ccccc45)n3)C2)cc1 (configuration not stated) , field Population Mitochondria Different-Phenotype (%): 42
